Listing: protein stability index of selected variants
B1: PTPLAD1 (parent)
chain: YSFYMLTCIDMDWKVLTWLRYTLW

- Variants of: B1
- PROCEDURE_DETAILS: protein stability index of a GFP-peptide fusion (GPS, HEK-293T) (PSI 1-6); higher = more stable;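 also: lentivirally expressed fusions sorted by FACS into six bins by GFP to DsRed ratio, PSI derived from sequencing read proportions per bin multiplied by bin number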
- DETAILS: c terminus: a fixed tail appended
Enter the number alone.

change=S2Y metric="protein stability index" value_measured=2.99
change=W24H metric="protein stability index" value_measured=3.02

Proceed to the following item.
Input line: // protein stability index lookup, key: K14I
Output line: 2.92
